Measured values drawn from paper PMC9950535 for this set.

Target: T1, SsoRadA (Saccharolobus solfataricus, UniProt Q55075 1-324)
T1 sequence: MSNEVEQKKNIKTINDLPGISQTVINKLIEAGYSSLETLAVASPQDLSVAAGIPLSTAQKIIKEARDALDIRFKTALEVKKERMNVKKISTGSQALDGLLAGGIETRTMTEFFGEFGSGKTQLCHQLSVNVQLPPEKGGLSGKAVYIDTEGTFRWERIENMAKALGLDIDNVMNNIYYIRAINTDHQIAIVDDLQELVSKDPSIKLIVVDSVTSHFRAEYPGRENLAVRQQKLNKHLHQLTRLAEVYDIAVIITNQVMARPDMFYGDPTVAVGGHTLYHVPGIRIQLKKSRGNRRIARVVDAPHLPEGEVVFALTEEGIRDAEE
Experiment: filter binding; 10 mM Mn2+, 3 uM ATP; Filter binding: 40 mM HEPES pH 7.0, 50 mM KCl, 10 mM CaCl2, MgCl2 or MnCl2, 20 pmol SsoRadA, 3 uM ATP where included, ssDNA varied; temperature not stated
Settings: protein: recombinant; single strand
MEASURED ATTRIBUTE: pKd
Please keep in mind that pKd is minus log10 of the molar concentration; only the number is needed.

Record request: pKd value, item 63-mer oligonucleotide (ssDNA) DNA: ACAGCACCAATGAAATCTATTAAGCTCCTCATCGTCCGCAAAAATATCGTCACCTCAAAAGGA
7.64
